tested on: control sera (pooled serum of ten healthy LUMC hospital workers; commercial negative donor pooled serum from the Dutch bloodbank); type: binding, human; parameters: unit not given here
recorded.endpoint: Binding of Control serum LUMC to linear peptides
Give the figure by itself; no unit, no explanation.

Problem: Name the recorded Binding of Control serum LUMC to linear peptides of the item LIVFTSCELYHYQEC in your answer.
Solution: 0.7

Problem: Name the recorded Binding of Control serum LUMC to linear peptides of the item PQGLPNNTASWFTAL in your answer.
Solution: 0.7

Problem: Name the recorded Binding of Control serum LUMC to linear peptides of the item QQQQGQTVTKKSAAE in your answer.
Solution: 0.6

Problem: Name the recorded Binding of Control serum LUMC to linear peptides of the item YQLESTQITTDTGIE in your answer.
Solution: 0.4

Problem: Name the recorded Binding of Control serum LUMC to linear peptides of the item YQLRARSVSPKLFIR in your answer.
Solution: 0.6

Problem: Name the recorded Binding of Control serum LUMC to linear peptides of the item KQRRPQGLPNNTASW in your answer.
Solution: 0.5

Problem: Name the recorded Binding of Control serum LUMC to linear peptides of the item LVFLILCFTIKRKTE in your answer.
Solution: 0.6

Problem: Name the recorded Binding of Control serum LUMC to linear peptides of the item LIYFLQCINACRIIM in your answer.
Solution: 0.6

Problem: Name the recorded Binding of Control serum LUMC to linear peptides of the item HKKVSTNLCTHSFRK in your answer.
Solution: 0.9

Problem: Name the recorded Binding of Control serum LUMC to linear peptides of the item QECVRGTTVLLKEPC in your answer.
Solution: 1.0

Problem: Name the recorded Binding of Control serum LUMC to linear peptides of the item STPKLKEDYQIGGYS in your answer.
Solution: 0.7

Problem: Name the recorded Binding of Control serum LUMC to linear peptides of the item AYCCNIVNVSLVKPT in your answer.
Solution: 0.9

###

test system: antibodies in sera from SARS patients (sera 1a, 1b, 2, 6, 37, 62, London, SARS-yellow, SARS-green); assay type: binding, human; design: unit not given here
Field: Binding of serum 6 to looped/cyclic peptides of protein N of SARS-CoV Urbani. Provide a value for each of the sequences that follow.
Give the figure by itself; no unit, no explanation.

Problem: Name the recorded Binding of serum 6 to looped/cyclic peptides of protein N of SARS-CoV Urbani of the item VWVATEGALNTPKDH in your answer.
Solution: 0.4

Problem: Name the recorded Binding of serum 6 to looped/cyclic peptides of protein N of SARS-CoV Urbani of the item TNSGPDDQIGYYRRA in your answer.
Solution: 0.3

Problem: Name the recorded Binding of serum 6 to looped/cyclic peptides of protein N of SARS-CoV Urbani of the item EVTPSGTWLTYHGAI in your answer.
Solution: 0.3

Problem: Name the recorded Binding of serum 6 to looped/cyclic peptides of protein N of SARS-CoV Urbani of the item NGARPKQRRPQGLPN in your answer.
Solution: 0.4

Problem: Name the recorded Binding of serum 6 to looped/cyclic peptides of protein N of SARS-CoV Urbani of the item NFGDQDLIRQGTDYK in your answer.
Solution: 0.1

Problem: Name the recorded Binding of serum 6 to looped/cyclic peptides of protein N of SARS-CoV Urbani of the item VILLNKHIDAYKTFP in your answer.
Solution: 0.2

Problem: Name the recorded Binding of serum 6 to looped/cyclic peptides of protein N of SARS-CoV Urbani of the item YHGAIKLDDKDPQFK in your answer.
Solution: 0.1

Problem: Name the recorded Binding of serum 6 to looped/cyclic peptides of protein N of SARS-CoV Urbani of the item KKPRQKRTATKQYNV in your answer.
Solution: 0.3

Problem: Name the recorded Binding of serum 6 to looped/cyclic peptides of protein N of SARS-CoV Urbani of the item GTGPEASLPYGANKE in your answer.
Solution: 0.1

Problem: Name the recorded Binding of serum 6 to looped/cyclic peptides of protein N of SARS-CoV Urbani of the item WLTYHGAIKLDDKDP in your answer.
Solution: 0.1

Problem: Name the recorded Binding of serum 6 to looped/cyclic peptides of protein N of SARS-CoV Urbani of the item HWPQIAQFAPSASAF in your answer.
Solution: 0.4

Problem: Name the recorded Binding of serum 6 to looped/cyclic peptides of protein N of SARS-CoV Urbani of the item LESKVSGKGQQQQGQ in your answer.
Solution: 0.5

Problem: Name the recorded Binding of serum 6 to looped/cyclic peptides of protein N of SARS-CoV Urbani of the item NGPQSNQRSAPRITF in your answer.
Solution: 0.3

Problem: Name the recorded Binding of serum 6 to looped/cyclic peptides of protein N of SARS-CoV Urbani of the item HGAIKLDDKDPQFKD in your answer.
Solution: 0.1

Problem: Name the recorded Binding of serum 6 to looped/cyclic peptides of protein N of SARS-CoV Urbani of the item NNQNGGRNGARPKQR in your answer.
Solution: 0.2

Problem: Name the recorded Binding of serum 6 to looped/cyclic peptides of protein N of SARS-CoV Urbani of the item TPSGTWLTYHGAIKL in your answer.
Solution: 0.2

Problem: Name the recorded Binding of serum 6 to looped/cyclic peptides of protein N of SARS-CoV Urbani of the item TDNNQNGGRNGARPK in your answer.
Solution: 0.2

Problem: Name the recorded Binding of serum 6 to looped/cyclic peptides of protein N of SARS-CoV Urbani of the item IGTRNPNNNAATVLQ in your answer.
Solution: 0.4

Problem: Name the recorded Binding of serum 6 to looped/cyclic peptides of protein N of SARS-CoV Urbani of the item AFGRRGPEQTQGNFG in your answer.
Solution: 0.1

Problem: Name the recorded Binding of serum 6 to looped/cyclic peptides of protein N of SARS-CoV Urbani of the item PQGLPNNTASWFTAL in your answer.
Solution: 0.3

Problem: Name the recorded Binding of serum 6 to looped/cyclic peptides of protein N of SARS-CoV Urbani of the item FYYLGTGPEASLPYG in your answer.
Solution: 0.2

Problem: Name the recorded Binding of serum 6 to looped/cyclic peptides of protein N of SARS-CoV Urbani of the item GRRGPEQTQGNFGDQ in your answer.
Solution: 0.2

Problem: Name the recorded Binding of serum 6 to looped/cyclic peptides of protein N of SARS-CoV Urbani of the item VPINTNSGPDDQIGY in your answer.
Solution: 0.2

Problem: Name the recorded Binding of serum 6 to looped/cyclic peptides of protein N of SARS-CoV Urbani of the item RPQGLPNNTASWFTA in your answer.
Solution: 0.4

Problem: Name the recorded Binding of serum 6 to looped/cyclic peptides of protein N of SARS-CoV Urbani of the item LALLLLDRLNQLESK in your answer.
Solution: 0.2

Problem: Name the recorded Binding of serum 6 to looped/cyclic peptides of protein N of SARS-CoV Urbani of the item WFTALTQHGKEELRF in your answer.
Solution: 0.2

Problem: Name the recorded Binding of serum 6 to looped/cyclic peptides of protein N of SARS-CoV Urbani of the item ASAFFGMSRIGMEVT in your answer.
Solution: 0.1

Problem: Name the recorded Binding of serum 6 to looped/cyclic peptides of protein N of SARS-CoV Urbani of the item PEQTQGNFGDQDLIR in your answer.
Solution: 0.2

Problem: Name the recorded Binding of serum 6 to looped/cyclic peptides of protein N of SARS-CoV Urbani of the item TALALLLLDRLNQLE in your answer.
Solution: 0.3

Problem: Name the recorded Binding of serum 6 to looped/cyclic peptides of protein N of SARS-CoV Urbani of the item KKTDEAQPLPQRQKK in your answer.
Solution: 0.0

Problem: Name the recorded Binding of serum 6 to looped/cyclic peptides of protein N of SARS-CoV Urbani of the item PQIAQFAPSASAFFG in your answer.
Solution: 0.3

Problem: Name the recorded Binding of serum 6 to looped/cyclic peptides of protein N of SARS-CoV Urbani of the item VTQAFGRRGPEQTQG in your answer.
Solution: 0.1

Problem: Name the recorded Binding of serum 6 to looped/cyclic peptides of protein N of SARS-CoV Urbani of the item SRSRGNSRNSTPGSS in your answer.
Solution: 0.1

Problem: Name the recorded Binding of serum 6 to looped/cyclic peptides of protein N of SARS-CoV Urbani of the item RWYFYYLGTGPEASL in your answer.
Solution: 0.3

Problem: Name the recorded Binding of serum 6 to looped/cyclic peptides of protein N of SARS-CoV Urbani of the item GKMKELSPRWYFYYL in your answer.
Solution: 0.4

Problem: Name the recorded Binding of serum 6 to looped/cyclic peptides of protein N of SARS-CoV Urbani of the item LTQHGKEELRFPRGQ in your answer.
Solution: 0.3

Problem: Name the recorded Binding of serum 6 to looped/cyclic peptides of protein N of SARS-CoV Urbani of the item GNSPARMASGGGETA in your answer.
Solution: 0.1

Problem: Name the recorded Binding of serum 6 to looped/cyclic peptides of protein N of SARS-CoV Urbani of the item PKDHIGTRNPNNNAA in your answer.
Solution: 0.3

Problem: Name the recorded Binding of serum 6 to looped/cyclic peptides of protein N of SARS-CoV Urbani of the item GKEELRFPRGQGVPI in your answer.
Solution: 0.3

Problem: Name the recorded Binding of serum 6 to looped/cyclic peptides of protein N of SARS-CoV Urbani of the item IVWVATEGALNTPKD in your answer.
Solution: 0.1

Problem: Name the recorded Binding of serum 6 to looped/cyclic peptides of protein N of SARS-CoV Urbani of the item NTNSGPDDQIGYYRR in your answer.
Solution: 0.3

Problem: Name the recorded Binding of serum 6 to looped/cyclic peptides of protein N of SARS-CoV Urbani of the item KMKELSPRWYFYYLG in your answer.
Solution: 0.3

Problem: Name the recorded Binding of serum 6 to looped/cyclic peptides of protein N of SARS-CoV Urbani of the item ANKEGIVWVATEGAL in your answer.
Solution: 0.2

Problem: Name the recorded Binding of serum 6 to looped/cyclic peptides of protein N of SARS-CoV Urbani of the item KQRRPQGLPNNTASW in your answer.
Solution: 0.4

Problem: Name the recorded Binding of serum 6 to looped/cyclic peptides of protein N of SARS-CoV Urbani of the item RFPRGQGVPINTNSG in your answer.
Solution: 0.2

Problem: Name the recorded Binding of serum 6 to looped/cyclic peptides of protein N of SARS-CoV Urbani of the item ADMDDFSRQLQNSMS in your answer.
Solution: 0.0

Problem: Name the recorded Binding of serum 6 to looped/cyclic peptides of protein N of SARS-CoV Urbani of the item NSRNSTPGSSRGNSP in your answer.
Solution: 0.4

Problem: Name the recorded Binding of serum 6 to looped/cyclic peptides of protein N of SARS-CoV Urbani of the item YNVTQAFGRRGPEQT in your answer.
Solution: 0.1
